- SYSTEM_TESTED: endogenous kinases and other proteins enriched by Kinobeads from mixed cancer cell lysates (Homo sapiens, UniProt O00444)
- Construct: endogenous in cells
- Sequence (O00444 whole entry): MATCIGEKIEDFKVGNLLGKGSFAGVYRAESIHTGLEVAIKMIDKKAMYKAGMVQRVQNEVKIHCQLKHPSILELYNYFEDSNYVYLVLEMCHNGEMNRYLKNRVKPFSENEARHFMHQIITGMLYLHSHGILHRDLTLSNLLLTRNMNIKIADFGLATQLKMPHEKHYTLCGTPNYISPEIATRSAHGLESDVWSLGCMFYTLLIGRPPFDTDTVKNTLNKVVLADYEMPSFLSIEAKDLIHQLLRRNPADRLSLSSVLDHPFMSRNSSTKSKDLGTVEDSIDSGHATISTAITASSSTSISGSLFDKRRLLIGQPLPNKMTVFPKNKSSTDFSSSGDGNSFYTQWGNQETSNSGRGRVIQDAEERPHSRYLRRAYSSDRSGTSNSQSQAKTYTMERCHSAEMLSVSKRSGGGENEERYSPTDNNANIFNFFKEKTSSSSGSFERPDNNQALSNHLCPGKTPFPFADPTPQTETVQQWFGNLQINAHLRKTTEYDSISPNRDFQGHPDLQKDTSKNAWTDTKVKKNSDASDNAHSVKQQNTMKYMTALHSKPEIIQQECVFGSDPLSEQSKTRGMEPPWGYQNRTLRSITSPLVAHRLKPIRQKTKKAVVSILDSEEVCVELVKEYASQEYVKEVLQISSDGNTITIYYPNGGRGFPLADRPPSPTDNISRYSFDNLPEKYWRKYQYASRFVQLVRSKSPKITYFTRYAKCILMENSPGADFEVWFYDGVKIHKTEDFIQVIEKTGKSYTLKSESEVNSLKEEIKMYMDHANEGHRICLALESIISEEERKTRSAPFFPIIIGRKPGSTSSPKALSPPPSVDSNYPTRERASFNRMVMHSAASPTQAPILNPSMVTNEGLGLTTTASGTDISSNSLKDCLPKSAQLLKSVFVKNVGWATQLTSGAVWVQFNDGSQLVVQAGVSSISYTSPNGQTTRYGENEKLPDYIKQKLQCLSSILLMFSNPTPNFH
- EXPERIMENTAL_PROTOCOL: Kinobeads pulldown, full dose-response (eight doses)
- APPLIED_CONDITIONS: target PLK4; read-out: apparent Kd
QUANTITY_KIND: Kd (nM)

# GIVEN_SMILES, QUANTITY_KIND, MEASUREMENT_UNIT, MEASURED
records = [
    ("Cn1cc(-c2nc(N[C@@H]3CCCC[C@@H]3N)c(F)c3c2C(=O)NC3)cn1", "Kd", "nM", 77.2),
]

====

- SYSTEM_TESTED: ABL1 (Homo sapiens)
- Sequence (P00519 28-1130 limits assumed): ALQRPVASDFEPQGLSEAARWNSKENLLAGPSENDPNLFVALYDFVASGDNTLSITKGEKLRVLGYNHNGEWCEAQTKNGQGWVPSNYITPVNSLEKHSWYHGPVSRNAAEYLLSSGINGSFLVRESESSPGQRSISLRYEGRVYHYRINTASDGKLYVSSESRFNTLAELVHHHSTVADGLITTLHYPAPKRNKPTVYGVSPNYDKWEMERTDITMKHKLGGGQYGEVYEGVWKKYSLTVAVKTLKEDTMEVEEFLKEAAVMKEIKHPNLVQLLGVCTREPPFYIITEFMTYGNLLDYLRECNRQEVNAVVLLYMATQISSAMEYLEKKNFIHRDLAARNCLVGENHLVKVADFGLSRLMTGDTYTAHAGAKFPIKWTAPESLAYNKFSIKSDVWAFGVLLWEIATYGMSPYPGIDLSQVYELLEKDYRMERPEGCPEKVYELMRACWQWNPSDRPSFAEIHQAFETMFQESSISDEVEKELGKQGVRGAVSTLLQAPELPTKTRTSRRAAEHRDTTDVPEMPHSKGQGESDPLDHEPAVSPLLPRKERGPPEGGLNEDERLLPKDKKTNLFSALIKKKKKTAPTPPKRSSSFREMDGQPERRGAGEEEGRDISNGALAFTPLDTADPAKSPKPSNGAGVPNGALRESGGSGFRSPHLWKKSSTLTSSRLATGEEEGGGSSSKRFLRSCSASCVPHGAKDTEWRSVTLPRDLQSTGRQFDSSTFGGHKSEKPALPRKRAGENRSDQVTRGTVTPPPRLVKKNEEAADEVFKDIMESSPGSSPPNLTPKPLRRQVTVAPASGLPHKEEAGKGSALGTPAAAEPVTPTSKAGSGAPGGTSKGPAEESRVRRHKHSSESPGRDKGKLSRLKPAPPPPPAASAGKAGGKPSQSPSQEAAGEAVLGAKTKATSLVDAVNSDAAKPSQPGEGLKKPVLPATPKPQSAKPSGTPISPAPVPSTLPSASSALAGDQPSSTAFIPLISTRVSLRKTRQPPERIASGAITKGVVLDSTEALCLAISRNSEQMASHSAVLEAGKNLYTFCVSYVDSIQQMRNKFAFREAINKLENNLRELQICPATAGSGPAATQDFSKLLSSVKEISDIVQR
- EXPERIMENTAL_PROTOCOL: Kinobeads two-dose competition binding: ABL1
- APPLIED_CONDITIONS: sheet "Kinobeads Drugmatrix - all"; unit inferred; read-out: Kinobeads Drugmatrix - all: apparent Kd, ABL1

# COMPOUND, READING_QUALIFIER, potency estimated from few doses [nM]
records = [
    ("CC(C)c1nc(-c2cccc(NS(=O)(=O)c3c(F)cccc3F)c2)c(-c2ccnc(Nc3ccc(N4CCOCC4)nc3)n2)s1 [GSK1723980B]", "=", 301),
    ("CC(C)c1nc(-c2ccc(F)c(NS(=O)(=O)c3c(F)cccc3F)c2)c(-c2ccnc(Nc3ccc(N4CCOCC4)nc3)n2)s1 [GSK1804250A]", "=", 970),
    ("COc1ccc(Nc2ncc(C#N)c(Nc3ccccc3C(N)=O)n2)cc1N1CCN(C)CC1 [GSK1558669A]", "=", 112),
    ("Clc1cc(Cl)cc(Nc2ccnc(Nc3cc(Cl)cc(Cl)c3)n2)c1 [GSK175726A]", "=", 83.2),
    ("CNC(=O)c1ccccc1Nc1nc(Nc2cccc(CS(C)(=O)=O)c2)ncc1C [GSK1520489A]", "=", 401),
    ("CNC(=O)c1ccccc1Nc1nc(Nc2ccc(N3CCOCC3)cc2)ncc1Cl [GSK1576028A]", ">", 1000),
    ("CN1CCc2ccc(Nc3nccc(-c4c(-c5cccc(NC(=O)c6c(F)cccc6F)c5)nc5ccccn45)n3)cc2C1 [GSK1010829B]", ">", 1000),
]

====

- SYSTEM_TESTED: FYN (Homo sapiens)
- Construct: endogenous in cells
- Sequence (P06241 whole entry): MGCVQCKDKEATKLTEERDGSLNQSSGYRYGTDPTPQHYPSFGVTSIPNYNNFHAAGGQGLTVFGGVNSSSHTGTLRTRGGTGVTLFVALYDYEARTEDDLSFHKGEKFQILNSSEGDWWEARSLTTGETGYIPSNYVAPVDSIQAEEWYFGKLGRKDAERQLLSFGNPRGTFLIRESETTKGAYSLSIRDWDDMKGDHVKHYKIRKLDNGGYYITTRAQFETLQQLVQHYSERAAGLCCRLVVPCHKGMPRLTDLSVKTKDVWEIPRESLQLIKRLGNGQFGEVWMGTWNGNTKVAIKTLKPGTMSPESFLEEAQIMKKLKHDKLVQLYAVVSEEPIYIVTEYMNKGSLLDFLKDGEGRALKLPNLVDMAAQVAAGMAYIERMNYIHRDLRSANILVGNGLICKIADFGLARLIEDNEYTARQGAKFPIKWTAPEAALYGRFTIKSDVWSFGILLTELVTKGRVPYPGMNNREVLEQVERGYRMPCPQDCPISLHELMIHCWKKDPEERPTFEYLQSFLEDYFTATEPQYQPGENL
- EXPERIMENTAL_PROTOCOL: Kinobeads competition binding: FYN;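 further: share of total target engagement due to this protein at one drug concentration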
- APPLIED_CONDITIONS: target FYN
# CATDS values compiled below

# GIVEN_SMILES, CATDS
measured = [
    ("CCc1cc2c(cc1N1CCC(N3CCOCC3)CC1)C(C)(C)c1[nH]c3cc(C#N)ccc3c1C2=O", 0),
    ("Nc1ncnc2[nH]c(-c3ccccc3)nc12", 0),
    ("N#CC1(c2ccc(NC(=O)c3cccnc3NCc3ccncc3)cc2)CCCC1", 0),
    ("CCN1CCN(Cc2ccc(Nc3ncc(F)c(-c4cc(F)c5nc(C)n(C(C)C)c5c4)n3)nc2)CC1", 0),
    ("CN(C)C/C=C/C(=O)Nc1cc2c(Nc3ccc(F)c(Cl)c3)ncnc2cc1O[C@H]1CCOC1", 0),
]

====

# EC50 values compiled below
- SYSTEM_TESTED: GSK3A (Homo sapiens, UniProt P49840)
- Construct: endogenous in cells
- Sequence (P49840 whole entry): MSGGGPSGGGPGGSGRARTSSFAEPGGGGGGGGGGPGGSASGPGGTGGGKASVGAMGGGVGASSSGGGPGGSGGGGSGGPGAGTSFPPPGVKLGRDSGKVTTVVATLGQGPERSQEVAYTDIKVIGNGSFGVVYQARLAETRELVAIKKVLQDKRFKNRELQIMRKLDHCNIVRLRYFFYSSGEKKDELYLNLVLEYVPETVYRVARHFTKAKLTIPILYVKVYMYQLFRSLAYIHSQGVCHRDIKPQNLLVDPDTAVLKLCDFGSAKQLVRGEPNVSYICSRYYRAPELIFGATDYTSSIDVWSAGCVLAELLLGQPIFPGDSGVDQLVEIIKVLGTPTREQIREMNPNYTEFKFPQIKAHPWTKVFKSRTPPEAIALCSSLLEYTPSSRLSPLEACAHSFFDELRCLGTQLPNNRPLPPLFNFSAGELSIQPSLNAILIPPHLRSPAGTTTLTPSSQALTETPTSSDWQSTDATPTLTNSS
- EXPERIMENTAL_PROTOCOL: Kinobeads full dose-response competition binding: GSK3A
- APPLIED_CONDITIONS: Gene Name GSK3A; eight-dose curve fit, doses in nM
QUANTITY_KIND: EC50 (nM)

# MOLECULE, MEASURED
measured = [
    ("CCn1c(-c2nonc2N)nc2c(C#CC(C)(C)O)nc(OCCN)cc21 [GSK902056A]", 173),
    ("CCn1c(-c2nonc2N)nc2c(C#CC(C)(C)O)nc(OCCNC)cc21 [GSK949675A]", 167),
]

====

- SYSTEM_TESTED: endogenous kinases and other proteins enriched by Kinobeads from mixed cancer cell lysates (Homo sapiens)
- Construct: endogenous in cells
- Sequence (P51946 1-323): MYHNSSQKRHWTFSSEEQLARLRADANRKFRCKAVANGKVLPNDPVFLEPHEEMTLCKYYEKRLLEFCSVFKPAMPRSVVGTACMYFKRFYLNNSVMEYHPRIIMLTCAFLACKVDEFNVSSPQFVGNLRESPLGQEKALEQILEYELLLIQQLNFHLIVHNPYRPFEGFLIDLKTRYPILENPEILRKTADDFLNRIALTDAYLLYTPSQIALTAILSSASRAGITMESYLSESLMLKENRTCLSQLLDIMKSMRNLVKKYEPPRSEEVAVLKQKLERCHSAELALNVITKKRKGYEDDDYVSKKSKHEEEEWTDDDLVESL
- EXPERIMENTAL_PROTOCOL: Kinobeads pulldown, full dose-response (eight doses)
- APPLIED_CONDITIONS: target CCNH
pEC50: −log10 of the molar value.
QUANTITY_KIND: pEC50

# GIVEN_SMILES, MEASURED
records = [
    ("Cn1cc(-c2nc(N[C@@H]3CCCC[C@@H]3N)c(F)c3c2C(=O)NC3)cn1", 5.76),
]

====

# CATDS values compiled below
- System: MAP4K5
- EXPERIMENTAL_PROTOCOL: Kinobeads competition binding: MAP4K5
- Parameters: species or system human
- APPLIED_CONDITIONS: target MAP4K5
QUANTITY_KIND: CATDS

# GIVEN_SMILES, QUANTITY_KIND, MEASURED
data = [
    ("CCc1cc2c(cc1N1CCC(N3CCOCC3)CC1)C(C)(C)c1[nH]c3cc(C#N)ccc3c1C2=O", "CATDS", 0),
    ("N#CC1(c2ccc(NC(=O)c3cccnc3NCc3ccncc3)cc2)CCCC1", "CATDS", 0),
    ("CCN1CCN(Cc2ccc(Nc3ncc(F)c(-c4cc(F)c5nc(C)n(C(C)C)c5c4)n3)nc2)CC1", "CATDS", 0),
    ("Nc1ncnc2[nH]c(-c3ccccc3)nc12", "CATDS", 0),
]

====

- Test system: IRAK1
- EXPERIMENTAL_PROTOCOL: Kinobeads competition binding: IRAK1
- Design: species or system human
- APPLIED_CONDITIONS: target IRAK1

# COMPOUND, CATDS
records = [
    ("CCN1CCN(Cc2ccc(Nc3ncc(F)c(-c4cc(F)c5nc(C)n(C(C)C)c5c4)n3)nc2)CC1 [Abemaciclib]", 0.02986),
    ("CCc1cc2c(cc1N1CCC(N3CCOCC3)CC1)C(C)(C)c1[nH]c3cc(C#N)ccc3c1C2=O [Alectinib]", 0),
    ("Nc1ncnc2[nH]c(-c3ccccc3)nc12 [AH5015_KCGS]", 0),
    ("N#CC1(c2ccc(NC(=O)c3cccnc3NCc3ccncc3)cc2)CCCC1 [Apatinib]", 0),
]

====

- SYSTEM_TESTED: endogenous kinases and other proteins enriched by Kinobeads from mixed cancer cell lysates (Homo sapiens, UniProt O94804)
- Construct: endogenous in cells
- Sequence (O94804 whole entry): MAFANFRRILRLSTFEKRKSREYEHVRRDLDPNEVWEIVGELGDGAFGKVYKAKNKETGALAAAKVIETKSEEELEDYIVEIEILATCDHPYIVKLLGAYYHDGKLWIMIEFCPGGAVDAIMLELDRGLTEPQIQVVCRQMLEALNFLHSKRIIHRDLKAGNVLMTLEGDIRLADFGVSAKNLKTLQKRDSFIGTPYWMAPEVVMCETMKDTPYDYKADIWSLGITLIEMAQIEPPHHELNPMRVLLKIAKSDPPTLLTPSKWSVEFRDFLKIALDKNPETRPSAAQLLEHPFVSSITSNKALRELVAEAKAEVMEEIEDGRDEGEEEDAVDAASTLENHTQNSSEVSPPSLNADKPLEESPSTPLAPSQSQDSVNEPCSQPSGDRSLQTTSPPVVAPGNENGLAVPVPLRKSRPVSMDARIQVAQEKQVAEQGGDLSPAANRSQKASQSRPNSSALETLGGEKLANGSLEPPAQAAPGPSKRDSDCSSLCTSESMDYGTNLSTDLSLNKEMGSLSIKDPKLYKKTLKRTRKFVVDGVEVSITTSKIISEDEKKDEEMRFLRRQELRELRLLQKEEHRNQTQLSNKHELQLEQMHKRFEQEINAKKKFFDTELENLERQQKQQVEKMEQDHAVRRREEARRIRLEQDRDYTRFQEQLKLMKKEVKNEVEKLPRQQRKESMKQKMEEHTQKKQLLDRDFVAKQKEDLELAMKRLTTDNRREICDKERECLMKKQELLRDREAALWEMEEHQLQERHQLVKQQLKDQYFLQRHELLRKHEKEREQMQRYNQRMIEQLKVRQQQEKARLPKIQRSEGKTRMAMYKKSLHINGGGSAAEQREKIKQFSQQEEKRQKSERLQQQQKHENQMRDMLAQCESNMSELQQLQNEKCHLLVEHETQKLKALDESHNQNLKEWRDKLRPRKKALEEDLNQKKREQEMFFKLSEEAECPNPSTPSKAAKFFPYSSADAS
- EXPERIMENTAL_PROTOCOL: Kinobeads pulldown, full dose-response (eight doses);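 further: competition with Kinobeads ε after inhibitor preincubation in lysate (5 mg/ml protein) for 45 min at 4 °C, DMSO control, doses 0.3–1,000 nM, label-free LC–MS/MS quantification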
- Type: binding
- APPLIED_CONDITIONS: target STK10; read-out: apparent Kd

# MOLECULE, Kd
data = [
    ("Cn1cc(-c2nc(N[C@@H]3CCCC[C@@H]3N)c(F)c3c2C(=O)NC3)cn1 [TAK659]", "725 nM"),
]

====

- SYSTEM_TESTED: CAMK2G (Homo sapiens, UniProt Q13555)
- Construct: endogenous in cells
- Sequence (Q13555 whole entry): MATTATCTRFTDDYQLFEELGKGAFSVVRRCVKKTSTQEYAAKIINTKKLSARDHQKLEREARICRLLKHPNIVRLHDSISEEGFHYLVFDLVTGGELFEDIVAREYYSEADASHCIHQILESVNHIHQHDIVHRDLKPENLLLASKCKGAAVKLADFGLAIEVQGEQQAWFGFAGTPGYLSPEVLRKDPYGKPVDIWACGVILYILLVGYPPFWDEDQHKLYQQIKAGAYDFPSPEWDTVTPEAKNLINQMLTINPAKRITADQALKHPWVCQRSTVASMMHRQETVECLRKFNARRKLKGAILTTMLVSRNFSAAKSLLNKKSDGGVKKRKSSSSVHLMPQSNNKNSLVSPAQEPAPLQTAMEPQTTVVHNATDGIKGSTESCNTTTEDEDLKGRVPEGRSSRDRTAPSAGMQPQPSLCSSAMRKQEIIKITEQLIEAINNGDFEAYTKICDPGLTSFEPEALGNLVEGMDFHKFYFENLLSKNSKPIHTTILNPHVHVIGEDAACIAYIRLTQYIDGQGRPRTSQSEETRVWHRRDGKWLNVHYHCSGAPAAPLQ
- EXPERIMENTAL_PROTOCOL: Kinobeads competition binding: CAMK2G
- APPLIED_CONDITIONS: target CAMK2G

# COMPOUND, CATDS
data = [
    ("CCc1cc2c(cc1N1CCC(N3CCOCC3)CC1)C(C)(C)c1[nH]c3cc(C#N)ccc3c1C2=O [Alectinib]", 0),
    ("CCN1CCN(Cc2ccc(Nc3ncc(F)c(-c4cc(F)c5nc(C)n(C(C)C)c5c4)n3)nc2)CC1 [Abemaciclib]", 0.09397),
    ("N#CC1(c2ccc(NC(=O)c3cccnc3NCc3ccncc3)cc2)CCCC1 [Apatinib]", 0),
    ("Nc1ncnc2[nH]c(-c3ccccc3)nc12 [AH5015_KCGS]", 0),
]

====

- SYSTEM_TESTED: EPHB6 (Homo sapiens, UniProt O15197)
- Construct: to maximize the representation of endogenous proteins; endogenous in cells
- Sequence (O15197 32-1021): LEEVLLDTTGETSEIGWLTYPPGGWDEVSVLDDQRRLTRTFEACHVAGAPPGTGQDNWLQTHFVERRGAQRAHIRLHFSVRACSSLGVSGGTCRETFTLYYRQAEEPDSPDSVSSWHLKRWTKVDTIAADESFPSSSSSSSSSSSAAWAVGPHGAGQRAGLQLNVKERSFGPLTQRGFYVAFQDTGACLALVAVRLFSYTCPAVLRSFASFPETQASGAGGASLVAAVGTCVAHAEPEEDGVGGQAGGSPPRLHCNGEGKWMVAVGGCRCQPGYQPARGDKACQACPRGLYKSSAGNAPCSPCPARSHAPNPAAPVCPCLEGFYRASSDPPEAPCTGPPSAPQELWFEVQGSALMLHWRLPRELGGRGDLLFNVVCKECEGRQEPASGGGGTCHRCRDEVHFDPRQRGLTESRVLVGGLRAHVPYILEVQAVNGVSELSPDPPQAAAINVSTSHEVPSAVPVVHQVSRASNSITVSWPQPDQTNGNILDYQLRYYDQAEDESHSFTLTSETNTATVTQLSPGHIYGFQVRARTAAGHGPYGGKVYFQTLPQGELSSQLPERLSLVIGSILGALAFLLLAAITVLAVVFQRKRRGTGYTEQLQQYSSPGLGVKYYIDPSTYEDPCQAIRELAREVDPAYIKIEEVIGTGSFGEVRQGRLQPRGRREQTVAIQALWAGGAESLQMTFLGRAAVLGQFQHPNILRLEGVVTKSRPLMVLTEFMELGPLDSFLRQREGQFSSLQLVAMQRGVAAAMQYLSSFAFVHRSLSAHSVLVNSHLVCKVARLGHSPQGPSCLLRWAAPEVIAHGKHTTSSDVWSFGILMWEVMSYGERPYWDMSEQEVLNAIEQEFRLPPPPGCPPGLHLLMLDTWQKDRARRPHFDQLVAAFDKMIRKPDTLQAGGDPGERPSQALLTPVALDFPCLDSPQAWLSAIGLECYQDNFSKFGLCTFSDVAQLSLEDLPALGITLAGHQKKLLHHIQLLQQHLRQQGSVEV
- EXPERIMENTAL_PROTOCOL: Kinobeads two-dose competition binding: EPHB6
- APPLIED_CONDITIONS: target EPHB6
QUANTITY_KIND: CATDS

# GIVEN_SMILES, QUANTITY_KIND, MEASURED
measured = [
    ("Nc1ncnc2[nH]c(-c3ccccc3)nc12", "CATDS", 0),
    ("CN(C)C/C=C/C(=O)Nc1cc2c(Nc3ccc(F)c(Cl)c3)ncnc2cc1O[C@H]1CCOC1", "CATDS", 0),
    ("CCc1cc2c(cc1N1CCC(N3CCOCC3)CC1)C(C)(C)c1[nH]c3cc(C#N)ccc3c1C2=O", "CATDS", 0),
    ("CCN1CCN(Cc2ccc(Nc3ncc(F)c(-c4cc(F)c5nc(C)n(C(C)C)c5c4)n3)nc2)CC1", "CATDS", 0),
    ("N#CC1(c2ccc(NC(=O)c3cccnc3NCc3ccncc3)cc2)CCCC1", "CATDS", 0),
]
